Measured pIC50 of individual entries
tested.system: SHV-5 β-lactamase (Klebsiella pneumoniae, UniProt P0A3M1)
Construct: The β-lactamases were extracted by four cycles of freezing and thawing followed by centrifugation; endogenous in cells; host or cells: Escherichia coli cells containing SHV-5 (crude freeze-thaw extract)
Sequence (P0A3M1 22-286): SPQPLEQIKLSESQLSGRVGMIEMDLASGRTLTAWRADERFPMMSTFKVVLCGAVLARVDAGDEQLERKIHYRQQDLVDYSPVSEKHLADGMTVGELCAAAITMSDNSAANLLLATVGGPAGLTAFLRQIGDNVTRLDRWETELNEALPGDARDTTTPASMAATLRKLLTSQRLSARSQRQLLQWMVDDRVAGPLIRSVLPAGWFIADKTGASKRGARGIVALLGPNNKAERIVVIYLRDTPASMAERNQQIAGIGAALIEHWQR
protocol.notes: biochemical
Assay type: biochemical, Escherichia coli
cond: crude enzyme extract, 10 min preincubation at 37° C., nitrocefin 100 μM, PBS pH 7.0; read-out: SHV-5 IC50 Range
pIC50: −log10 of the molar value. Where a name gives a salt, the structure may show the parent alone.

Provide value of pIC50 for this record tested with SHV-5 β-lactamase (Klebsiella pneumoniae, UniProt P0A3M1): O=C(Cc1cccs1)N[C@@H](Cc1ccc(F)c(C(=O)O)c1)B(O)O [Example 21]
> 7.00

Provide value of pIC50 for this record tested with SHV-5 β-lactamase (Klebsiella pneumoniae, UniProt P0A3M1): NCCCOc1cccc(CC(=O)N[C@@H](Cc2cccc(C(=O)O)c2)B(O)O)c1 [Example 31, hydrochloride]
6.00 to 7.00

Provide value of pIC50 for this record tested with SHV-5 β-lactamase (Klebsiella pneumoniae, UniProt P0A3M1): O=C(CCC(=O)C1CC1)N[C@@H](Cc1cccc(C(=O)O)c1)B(O)O [Example 36]
< 6.00

Provide value of pIC50 for this record tested with SHV-5 β-lactamase (Klebsiella pneumoniae, UniProt P0A3M1): O=C(CC1CCCCC1)N[C@@H](Cc1cccc(C(=O)O)c1)B(O)O [Example 5]
< 6.00

Provide value of pIC50 for this record tested with SHV-5 β-lactamase (Klebsiella pneumoniae, UniProt P0A3M1): O=C(Cc1cc(F)ccc1F)N[C@@H](Cc1cccc(C(=O)O)c1)B(O)O [Example 6]
> 7.00

Provide value of pIC50 for this record tested with SHV-5 β-lactamase (Klebsiella pneumoniae, UniProt P0A3M1): O=C(CCC(=O)c1cccs1)N[C@@H](Cc1cccc(C(=O)O)c1)B(O)O [Example 12]
6.00 to 7.00

Provide value of pIC50 for this record tested with SHV-5 β-lactamase (Klebsiella pneumoniae, UniProt P0A3M1): O=C(Cc1ccccc1Cl)N[C@@H](Cc1cccc(C(=O)O)c1)B(O)O [Example 24]
> 7.00

Provide value of pIC50 for this record tested with SHV-5 β-lactamase (Klebsiella pneumoniae, UniProt P0A3M1): O=C(CCC(=NO)c1cccs1)N[C@@H](Cc1cccc(C(=O)O)c1)B(O)O [Example 37]
< 6.00

====

tested.system: P99 AmpC β-lactamase (Enterobacter cloacae)
Construct: The β-lactamases were extracted by four cycles of freezing and thawing followed by centrifugation; endogenous in cells; host or cells: Enterobacter cloacae cells containing P99 (crude freeze-thaw extract)
protocol.notes: biochemical
Assay type: biochemical
measure: IC50

Need IC50 of CN1CCC(Oc2cccc(CC(=O)NC(Cc3cccc(C(=O)O)c3)B(O)O)c2)C1 (stereo not shown) , thanks.
< 100 nM

====

tested.system: P99 AmpC β-lactamase (Enterobacter cloacae, UniProt P05364)
Construct: The β-lactamases were extracted by four cycles of freezing and thawing followed by centrifugation; endogenous in cells; host or cells: Enterobacter cloacae cells containing P99 (crude freeze-thaw extract)
Sequence (P05364 21-381): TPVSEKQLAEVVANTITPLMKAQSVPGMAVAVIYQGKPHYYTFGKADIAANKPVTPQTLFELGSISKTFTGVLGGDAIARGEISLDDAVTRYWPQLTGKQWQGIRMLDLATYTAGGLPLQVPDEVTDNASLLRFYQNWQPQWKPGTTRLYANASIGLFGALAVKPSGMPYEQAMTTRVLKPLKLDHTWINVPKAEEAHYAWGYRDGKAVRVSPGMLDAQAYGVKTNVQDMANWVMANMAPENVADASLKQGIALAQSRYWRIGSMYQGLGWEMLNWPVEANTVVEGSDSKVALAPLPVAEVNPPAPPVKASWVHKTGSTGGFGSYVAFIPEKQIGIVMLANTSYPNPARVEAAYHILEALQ
protocol.notes: biochemical
Format: biochemical
cond: crude enzyme extract, 10 min preincubation at 37° C., nitrocefin 100 μM, PBS pH 7.0; read-out: P99 AmpC IC50 Range
pIC50: −log10 of the molar value.
Measured pIC50 of individual entries

A selection of reference data follows.
[[record]]
compound = "Cc1ccc(C(=O)O)cc1C[C@H](NC(=O)Cc1cccs1)B(O)O [Example 13]"
tested_system = "P99 AmpC β-lactamase (Enterobacter cloacae, UniProt P05364)"
observed_result = "< 6.00"

[[record]]
compound = "O=C(CCCc1cccs1)N[C@@H](Cc1cccc(C(=O)O)c1)B(O)O [Example 35]"
tested_system = "P99 AmpC β-lactamase (Enterobacter cloacae, UniProt P05364)"
observed_result = "< 6.00"

[[record]]
compound = "O=C(Cc1ccsc1)N[C@@H](Cc1cccc(C(=O)O)c1)B(O)O [Example 29]"
tested_system = "P99 AmpC β-lactamase (Enterobacter cloacae, UniProt P05364)"
observed_result = "6.00 to 7.00"

[[record]]
compound = "O=C(Cc1cccc(Br)c1)N[C@@H](Cc1cccc(C(=O)O)c1)B(O)O [Example 7]"
tested_system = "P99 AmpC β-lactamase (Enterobacter cloacae, UniProt P05364)"
observed_result = "6.00 to 7.00"

[[record]]
compound = "O=C(Cc1ccc2ccccc2c1)N[C@@H](Cc1cccc(C(=O)O)c1)B(O)O [Example 23]"
tested_system = "P99 AmpC β-lactamase (Enterobacter cloacae, UniProt P05364)"
observed_result = "> 7.00"

[[record]]
compound = "O=C(CCC(=O)C1CC1)N[C@@H](Cc1cccc(C(=O)O)c1)B(O)O [Example 36]"
tested_system = "P99 AmpC β-lactamase (Enterobacter cloacae, UniProt P05364)"
observed_result = "< 6.00"

[[record]]
compound = "COc1ccc(OC)c(CC(=O)N[C@@H](Cc2cccc(C(=O)O)c2)B(O)O)c1 [Example 4]"
tested_system = "P99 AmpC β-lactamase (Enterobacter cloacae, UniProt P05364)"
observed_result = "6.00 to 7.00"

[[record]]
compound = "O=C(Cc1ccc(O)cc1)N[C@@H](Cc1cccc(C(=O)O)c1)B(O)O [Example 34]"
tested_system = "P99 AmpC β-lactamase (Enterobacter cloacae, UniProt P05364)"
observed_result = "> 7.00"

[[record]]
compound = "O=C(CCC(=O)c1cccs1)N[C@@H](Cc1cccc(C(=O)O)c1)B(O)O [Example 12]"
tested_system = "P99 AmpC β-lactamase (Enterobacter cloacae, UniProt P05364)"
observed_result = "> 7.00"

[[record]]
compound = "O=C(Cc1ccc(Br)cc1)N[C@@H](Cc1cccc(C(=O)O)c1)B(O)O [Example 16]"
tested_system = "P99 AmpC β-lactamase (Enterobacter cloacae, UniProt P05364)"
observed_result = "< 6.00"


# evaluate next
Need pIC50 of COc1cccc(CC(=O)N[C@@H](Cc2cccc(C(=O)O)c2)B(O)O)c1 [Example 2] , thanks.
6.00 to 7.00

====

tested.system: CTXM-15 β-lactamase (Escherichia coli, UniProt Q9EXV5)
Construct: The β-lactamases were extracted by four cycles of freezing and thawing followed by centrifugation; endogenous in cells
Sequence (Q9EXV5 29-291): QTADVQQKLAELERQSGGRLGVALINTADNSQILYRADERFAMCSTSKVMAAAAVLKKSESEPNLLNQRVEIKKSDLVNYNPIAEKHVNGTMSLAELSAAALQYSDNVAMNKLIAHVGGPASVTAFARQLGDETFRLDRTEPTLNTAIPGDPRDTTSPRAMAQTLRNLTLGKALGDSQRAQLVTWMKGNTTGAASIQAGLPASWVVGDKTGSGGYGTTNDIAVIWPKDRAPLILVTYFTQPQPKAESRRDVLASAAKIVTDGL
protocol.notes: biochemical
cond: crude enzyme extract, 10 min preincubation at 37° C., nitrocefin 100 μM, PBS pH 7.0; read-out: CTXM-15 IC50 Range
measure: IC50

A selection of reference data follows.
[[record]]
smiles_structure = "O=C(CCC(=NO)c1cccs1)N[C@@H](Cc1cccc(C(=O)O)c1)B(O)O"
tested_system = "CTXM-15 β-lactamase (Escherichia coli, UniProt Q9EXV5)"
measure = "IC50"
observed_result = "100 to 1000 nM"

[[record]]
smiles_structure = "Cc1ccc(C(=O)O)cc1C[C@H](NC(=O)Cc1cccs1)B(O)O"
tested_system = "CTXM-15 β-lactamase (Escherichia coli, UniProt Q9EXV5)"
measure = "IC50"
observed_result = "100 to 1000 nM"


# evaluate next
Need IC50 of `COc1cccc(CC(=O)N[C@@H](Cc2cccc(C(=O)O)c2)B(O)O)c1` , thanks.
< 100 nM
